Experiment: Human HepG2 cell viability assay in 384 well format
Type: toxicity, cell-based
Set-up: dose 125 nL, time 70.5 hour; concentration not given beside the values
Conditions: HepG2 cells, read-out: Inhibition
Reported values of cytotoxicity at 70.5 h for individual entries
Use % as the unit, but write only the number.

**Q:** What cytotoxicity at 70.5 h value was documented for this molecule, CN(C)C(=O)CN1C[C@H]2CCN(Cc3ccccc3)CC[C@H]2S1(=O)=O ?
**A:** -8.74

* * *

Reported values of cytotoxicity at 70.5 h for individual entries
Test: Human HepG2 cell viability assay in 384 well format
Type: toxicity, cell-based
Set-up: dose 125 nL, time 70.5 hour; concentration not given beside the values
Conditions: HepG2 cells, read-out: Inhibition
Use % as the unit, but write only the number.

Please review the entries below; each comes with its answer.
Cc1ncsc1CCC(=O)N1CCn2cccc2C1c1cccnc1 (stereo not given)
-3.49
COc1ccc2c(c1)C(=O)NC1(CC2)CCN(Cc2ccccc2)C1 (stereo not given)
-3.55
Cc1ccc(N2CCN(C)c3ncccc3C2)nn1
-2.98

**Q:** What cytotoxicity at 70.5 h value was documented for this compound, Cc1cc(C2CCCN2c2ncc(C(N)=O)cc2Cl)no1 (stereo not given) ?
**A:** -0.208

* * *

Experiment: Human HepG2 cell viability assay in 384 well format
Format: toxicity, cell-based
Set-up: dose 125 nL, time 70.5 hour; concentration not given beside the values
Conditions: HepG2 cells, read-out: Inhibition
Reported values of cytotoxicity at 70.5 h for individual entries
Use % as the unit, but write only the number.

Please review the entries below; each comes with its answer.
O=C(CCCOCc1ccccc1)N1CCCC1c1ccccn1 (stereo not drawn)
-12.6
c1cc(CN2CCC(CCn3cccn3)CC2)cc(Cn2cccn2)c1
-2.62

For the next question, use this compound.
**Q:** What cytotoxicity at 70.5 h value was documented for this compound, CC(C)N1CC[C@@H]2OC[C@H](C(=O)Nc3cccnc3)C[C@@H]2C1 ?
**A:** 25.1

* * *

Assay: Human HepG2 cell viability assay in 384 well format
Type: toxicity, cell-based
Design: dose 125 nL, time 70.5 hour; concentration not given beside the values
Settings: HepG2 cells, read-out: Inhibition
Reported values of cytotoxicity at 70.5 h for individual entries
Hey, just the number and the unit after it is fine.

CCN1CCc2[nH]cnc2C12CCN(c1ccc(Cl)cn1)CC2
-4.3%
Cc1ccc(-c2nc(CN(Cc3cccs3)CC3CCCO3)no2)cc1 (stereo unspecified)
-8.66%
Cc1noc(-c2ccc(N3CCC(C(=O)N4CCCC4)CC3)nc2)n1
-1.82%
CC(C)Nc1ncnc2c1CCN(c1cc(C(F)(F)F)ncn1)CC2
3.48%
O=C(O)c1ccccc1-n1cnc(CN2CCCCCC2)c1
-1.66%

For the next question, use this compound.
**Q:** What cytotoxicity at 70.5 h value was documented for this compound, Cc1ccccc1C(=O)N1CCC2(CCC(C(=O)NCC3CC3)O2)CC1 (stereo unspecified) ?
**A:** -18.9%

* * *

Assay: Human HepG2 cell viability assay in 384 well format
Format: toxicity, cell-based
Set-up: dose 125 nL, time 70.5 hour; concentration not given beside the values
Conditions: HepG2 cells, read-out: Inhibition
Recorded Metric: cytotoxicity at 70.5 h (%)
Use % as the unit, but write only the number.

Please review the entries below; each comes with its answer.
O=C1N(c2cccc(F)c2)Cc2nc(=O)n(Cc3ccc(Cl)cc3)n21
-12.7
COC(=O)c1sc(NCc2ccc(N3CCC(O)CC3)c(F)c2)nc1Cl
-4.16
NCCCC(=O)N1CCC2(CC1)CN(C(=O)c1ccc(Cl)cc1)CCO2
-12.4
Cc1ccoc1C(=O)N1C[C@@H]2COC[C@]2(COCc2cccnc2)C1
-0.687
O=C1CC2(CCN(C(=O)c3ccccc3)C2)Nc2ccccc2N1 (stereo not drawn)
-17.8
CC1CN(C)c2ccccc2CN1C(=O)c1ccc[nH]1 (stereo not drawn)
0.885
CC(OCC(F)(F)F)C(=O)NCCN(C)C (stereo not drawn)
20.8

For the next question, use this compound.
**Q:** What cytotoxicity at 70.5 h value was documented for this compound, CCOC(=O)CCC(=O)N1CCC(Oc2ncccc2Cl)CC1 ?
**A:** -4.05
